assay: Determination of the microsomal half-life, human liver microsomes; settings: human, liver microsomes, pH 7.4
Where a name gives a salt, the structure may show the parent alone.
MEASUREMENT TYPE: microsomal CLint at 0.5 μM

INSERT INTO assay_data (molecule, value_reported) VALUES
  ('Cc1cnc(CCN2Cc3nccc(N4CCOCC4)c3C2=O)c(C)c1', '100 to 220 µL/min/mg'),
  ('O=C1c2c(-c3ccnnc3)ccnc2CN1CCc1ccc2ccccc2n1', '< 100 µL/min/mg'),
  ('O=C1c2c(cccc2-c2ccc3nc[nH]c3c2)CN1CCc1cn2ccccc2n1', '< 100 µL/min/mg'),
  ('Cc1cccn2cc(CCN3Cc4nccc(-c5ccncc5)c4C3=O)nc12 [compound 496, trifluoroacetate]', '< 100 µL/min/mg'),
  ('C=C(C)c1ccc(Oc2ccc(-c3cccc4c3C(=O)N(CCc3ccc5ccccc5n3)C4)cc2)cc1', '> 220 µL/min/mg'),
  ('O=C1c2c(-c3ccncc3)ccnc2CN1CCc1cc2ccccc2o1', '< 100 µL/min/mg'),
  ('O=C1c2c(cccc2NC2CNC2)CN1CCc1ccc2ccccc2n1', '< 100 µL/min/mg'),
  ('O=C1c2c(N3CCC(CF)C3)ccnc2CN1CCc1cn2ccccc2n1 (stereo not shown)', '< 100 µL/min/mg'),
  ('O=C1c2c(cccc2N2CCOCC2)CN1CCc1cnc2ccccc2n1', '< 100 µL/min/mg'),
  ('O=C1c2c(N3CCNCC3)ccnc2CN1CCc1ccc2ccccc2n1', '< 100 µL/min/mg'),
  ('O=C1c2cccc(N3CCOCC3)c2CN1CCc1ccc2ccccc2n1', '100 to 220 µL/min/mg'),
  ('COc1ccc(-c2ccnc3c2C(=O)N(CCc2nc4ccccc4s2)C3)cc1 [compound 541, trifluoroacetate]', '< 100 µL/min/mg'),
  ('CCOc1ncc(-c2cccc3c2CN(CCc2ccc4ccccc4n2)C3=O)cn1', '100 to 220 µL/min/mg'),
  ('O=C1c2c(N3CCOCC3)ccnc2CN1CCc1ccccn1', '< 100 µL/min/mg'),
  ('O=C1c2cccc(OCc3cccnc3)c2C(=O)N1CCc1ccc2ccccc2n1', '100 to 220 µL/min/mg'),
  ('O=C1c2cccc(-c3cc[nH]n3)c2CN1CCc1cn2ccccc2n1 [Example 314, trifluoroacetate]', '< 100 µL/min/mg'),
  ('Cc1ccc2c(c1)nc(CCN1Cc3nccc(N4CCOCC4)c3C1=O)n2C', '< 100 µL/min/mg'),
  ('O=C1c2c(cccc2N2CCS(=O)(=O)CC2)CN1CCc1nc2ccccc2[nH]1', '< 100 µL/min/mg'),
  ('COc1cccc(CCN2Cc3nccc(-c4ccncc4)c3C2=O)n1', '100 to 220 µL/min/mg'),
  ('Cn1nccc1-c1ccnc2c1C(=O)N(CCc1cn3ccccc3n1)C2', '< 100 µL/min/mg'),
  ('Cn1cnc2ccc(-c3cccc4c3C(=O)N(CCc3ccc5ccccc5n3)C4)cc21 [Example 8, trifluoroacetate]', '> 220 µL/min/mg'),
  ('O=C1c2c(N3CCOCC3)ccnc2CN1CCc1nc2ccccn2n1', '< 100 µL/min/mg'),
  ('COc1ccc(-c2ccnn2C)c2c1CN(CCc1ccc3ccccc3n1)C2=O', '100 to 220 µL/min/mg'),
  ('Cc1ccc2c(c1)nc(CCN1Cc3cccc(N4CCOCC4)c3C1=O)n2C [Example 306, trifluoroacetate]', '100 to 220 µL/min/mg'),
  ('COc1ccc(-c2cncnc2)c2c1C(=O)N(CCc1cn3ccccc3n1)C2 [compound 549, trifluoroacetate]', '< 100 µL/min/mg'),
  ('O=C1c2c(cccc2-c2cncnc2)CN1CCc1nc2ccccc2[nH]1 [Example 312, trifluoroacetate]', '< 100 µL/min/mg'),
  ('O=C1c2c(cccc2-c2ccncc2)CN1CCc1ccc2sccc2n1', '> 220 µL/min/mg'),
  ('O=C1c2c(-c3ccncc3)ccnc2CN1CCc1cn2cc(F)ccc2n1 [compound 494, trifluoroacetate]', '< 100 µL/min/mg');
